Please respond with reported k5 for every item in the list.
- Target: InhA (Mycobacterium tuberculosis)
- Experimental Details: Progress curve analysis of InhA inhibition
- Format: biochemical
- Protocol Conditions: 20 °C; EI to EI*, calculated from Ki^app, Ki^*app, k6
Numbers only, in min⁻¹.

Here's what some known entries look like.
CCCCCCc1ccc(Oc2ccccc2C)c(O)c1 :: 0.23
CCCCCCc1ccc(Oc2ccccc2C#N)c(O)c1 :: 5.0
CCCCCCc1ccc(Oc2ccccc2Cl)c(O)c1 :: 0.12

The record that follows has no k5 shown yet.
**Query** Fill in the blank: the reported k5 of CCCCCCc1ccc(Oc2ccccc2F)c(O)c1 is ____.
**Result** 0.18

---

- Target: InhA (Mycobacterium tuberculosis, UniProt P9WGR1)
- Sequence (P9WGR1 whole entry, looked up): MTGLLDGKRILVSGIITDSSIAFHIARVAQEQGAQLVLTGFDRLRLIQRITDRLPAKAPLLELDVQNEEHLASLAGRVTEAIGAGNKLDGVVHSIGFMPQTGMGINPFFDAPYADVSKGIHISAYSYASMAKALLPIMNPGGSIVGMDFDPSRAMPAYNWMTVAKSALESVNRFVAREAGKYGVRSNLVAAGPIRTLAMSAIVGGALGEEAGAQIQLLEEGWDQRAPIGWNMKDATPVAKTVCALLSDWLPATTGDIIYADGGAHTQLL
- Experimental Details: Progress curve analysis of InhA inhibition
- Assay type: biochemical
- Protocol Conditions: Ki^app, 20 °C; initial EI complex
Measured Attribute: pKi
Give bare numbers, as −log10 of the molar value.

**Query** Fill in the blank: the reported pKi of CCCCCCc1ccc(Oc2ccccc2F)c(O)c1 is ____.
**Result** 6.66

---

- Target: InhA (Mycobacterium tuberculosis)
- Experimental Details: Progress curve analysis of InhA inhibition
- Type: biochemical
- Protocol Conditions: 20 °C; residence time from progress curve analysis
Measured Attribute: tR (min)
One number for each entry, in min.

CCCCCCc1ccc(Oc2ccccc2C#N)c(O)c1 :: 50

Hi! Can you tell me tR for each of these compounds?
1. CCCCCCc1ccc(Oc2ccccc2F)c(O)c1
2. CCCCCCc1ccc(Oc2ccccc2Cl)c(O)c1
3. CCCCCCc1ccc(Oc2ccccc2C)c(O)c1

**Result**
38
90
30

---

- Target: InhA (Mycobacterium tuberculosis)
- Experimental Details: [32P]-NAD+ direct dissociation kinetics
- Type: binding
- Protocol Conditions: 20 °C; 32P-NAD+ direct dissociation method
Measured Attribute: tR direct dissociation (min)
Answers are plain numbers, in min.

CCCCCCc1ccc(Oc2ccccc2Cl)c(O)c1 [PT91] :: 148
CCCCCCc1ccc(Oc2ccccc2F)c(O)c1 [PT113] :: 31
CCCCCCc1ccc(Oc2ccccc2C#N)c(O)c1 [PT119] :: 47

The record that follows has no tR direct dissociation shown yet.
**Query** Fill in the blank: the reported tR direct dissociation of CCCCCCc1ccc(Oc2ccccc2C)c(O)c1 [PT70] is ____.
**Result** 40

---

- Target: UniProtKB P9WGR1
- Experimental Details: Progress curve analysis of InhA inhibition
- Type: biochemical
- Protocol Conditions: 20 °C; EI* to EI
Please respond with reported k6 for every item in the list.
Numbers only, in min⁻¹.

CCCCCCc1ccc(Oc2ccccc2C)c(O)c1 :: 0.036

Hi! Can you tell me k6 for each of these compounds?
1. CCCCCCc1ccc(Oc2ccccc2Cl)c(O)c1
2. CCCCCCc1ccc(Oc2ccccc2C#N)c(O)c1
3. CCCCCCc1ccc(Oc2ccccc2F)c(O)c1

**Result**
0.013
0.020
0.026

---

- Target: InhA (Mycobacterium tuberculosis, UniProt P9WGR1)
- Experimental Details: Progress curve analysis of InhA inhibition
- Type: biochemical
- Protocol Conditions: read-out: Ki^*app; 20 °C; final EI* complex
Measured Attribute: Ki (nM)
One number for each entry, in nM.

Here's what some known entries look like.
CCCCCCc1ccc(Oc2ccccc2C#N)c(O)c1 :: 40
CCCCCCc1ccc(Oc2ccccc2Cl)c(O)c1 :: 5

**Query** Fill in the blank: the reported Ki of CCCCCCc1ccc(Oc2ccccc2C)c(O)c1 is ____.
**Result** 29
